test target: human ODCase (Homo sapiens, UniProt P11172)
protocol text: Reversible, competitive inhibition of human ODCase
Assay type: biochemical
measured metric: Ki

{"molecule": "N#Cc1cc(=O)[nH]c(=O)n1[C@@H]1O[C@H](COP(=O)(O)O)[C@@H](O)[C@H]1F [Compound 35]", "measurement": "> 2000 µM"}
{"molecule": "N#Cc1cn([C@@H]2O[C@H](COP(=O)(O)O)[C@@H](O)[C@H]2F)c(=O)[nH]c1=O [Compound 37]", "measurement": "759 µM"}
{"molecule": "NC(=O)c1cc(=O)[nH]c(=O)n1[C@@H]1O[C@H](COP(=O)(O)O)[C@@H](O)[C@H]1F [Compound 36]", "measurement": "> 3000 µM"}
